All figures here come from ChEMBL document CHEMBL3286345.

test system: SH-SY5Y; test: Antiproliferative activity against human SH-SY5Y cells at 1 to 100 uM after 24 to 72 hrs by cell counting assay; assay type: functional, cell-based
Activity calls are given as the source filed them. No cut-off for these calls is given here.

- molecule: "CN1O[C@@H](OCC#Cc2ccccc2C#CCO)C[C@@H]1CO[Si](c1ccccc1)(c1ccccc1)C(C)(C)C (racemic)"
  Activity: "inactive"
- molecule: "CN1O[C@H](OCC#Cc2ccccc2C#CCO)C[C@@H]1CO[Si](c1ccccc1)(c1ccccc1)C(C)(C)C (racemic)"
  Activity: "inactive"
- molecule: "CN1O[C@@H]2COCC#Cc3ccccc3C#CCOC[C@@H]2[C@@H]1CO[Si](c1ccccc1)(c1ccccc1)C(C)(C)C (racemic)"
  Activity: "Active"
- molecule: "CN1O[C@H](OCC#Cc2ccccc2C#CCO)C[C@@H]1CO (racemic)"
  Activity: "Active"

* * *

test system: HepG2; assay: Antiproliferative activity against human HepG2 cells at 1 to 100 uM after 24 to 72 hrs by cell counting assay; format: functional, cell-based
Activity calls are given as the source filed them. The calls are words filed in the database; no cut-off is given here.
Reply using exactly one outcome from active, inactive

- molecule: "CN1O[C@@H]2COCC#Cc3ccccc3C#CCOC[C@@H]2[C@@H]1CO[Si](c1ccccc1)(c1ccccc1)C(C)(C)C (racemic)"
  target-or-system: "HepG2"
  classification: "active"
- molecule: "CN1O[C@@H](OCC#Cc2ccccc2C#CCO)C[C@@H]1CO[Si](c1ccccc1)(c1ccccc1)C(C)(C)C (racemic)"
  target-or-system: "HepG2"
  classification: "inactive"
- molecule: "CN1O[C@H](OCC#Cc2ccccc2C#CCO)C[C@@H]1CO (racemic)"
  target-or-system: "HepG2"
  classification: "active"

Now turn to the next molecule.
Outcome logged for CN1O[C@H](OCC#Cc2ccccc2C#CCO)C[C@@H]1CO[Si](c1ccccc1)(c1ccccc1)C(C)(C)C (racemic) in this assay:
inactive
